gLogD7.4 listing for selected molecules.
ASSAY REMARKS: Chromatographic LogD7.4
Format: physicochemical
CONDITION DETAILS: chromatographically determined, pH 7.4
RECORDED METRIC: gLogD7.4

| MOLECULE | COMPARATOR | RECORDED NUMBER |
| --- | --- | --- |
| O=C1CCOc2ccccc2C(=O)Nc2ccccc21 [Compound 7] | = | 2.0 |
| O=C1Nc2ccc(OC(F)(F)F)cc2C(=O)CCc2ccccc21 [Compound 26] | > | 3 |
| O=C1Nc2ncccc2C(=O)CCc2ccccc21 [Compound 29] | = | 1.2 |
| O=C1Nc2ccc(S(F)(F)(F)(F)F)cc2C(=O)CCc2ccccc21 [Compound 27] | > | 3 |
| O=C1CCc2cccnc2C(=O)Nc2ccccc21 [Compound 31] | = | 0.9 |
| O=C1CCc2ccccc2C(=O)N2CCCc3cccc1c32 [Compound 15] | = | 2.9 |

###

System: Chloroquine-sensitive NF54 P. falciparum isolate
ASSAY REMARKS: In vitro antiplasmodial activity, NF54
Type: cell-based, Plasmodium falciparum
CONDITION DETAILS: Plasmodium falciparum, NF54, read-out: P. falciparum IC50 NF54, Mean ± SD, n ≥ 2, 72 h [3H]hypoxanthine incorporation assay
IC50 listing for selected compounds.

| COMPOUND | TESTED ON | RESULT UNITS | IC50 |
| --- | --- | --- | --- |
| C[C@H]1[C@H](OC(=O)CCC(=O)O)O[C@@H]2O[C@@]3(C)CC[C@H]4[C@H](C)CC[C@@H]1[C@@]24OO3 [Artesunate, artesunate] | Chloroquine-sensitive NF54 P. falciparum isolate | nM | 6 |
| CCOC(=O)c1ccc2c(c1)C(=O)CCc1ccccc1C(=O)N2 | Chloroquine-sensitive NF54 P. falciparum isolate | nM | 41 |

###

h CLint listing for selected compounds.
ASSAY REMARKS: In vitro intrinsic clearance in human liver microsomes
Type: in vitro ADME

| COMPOUND | h CLint |
| --- | --- |
| O=C1Nc2ncccc2C(=O)CCc2ccccc21 [Compound 29] | 13 μL/min/mg protein |
| O=C1Nc2ccccc2C(=O)CCc2ccccc21 [Compound 2] | 20 μL/min/mg protein |
| O=C1CCc2cccnc2C(=O)Nc2ccccc21 [Compound 31] | 11 μL/min/mg protein |
| O=C1CCc2ccccc2C(=O)N2CCCc3cccc1c32 [Compound 15] | 310 μL/min/mg protein |

###

ASSAY REMARKS: In vitro intrinsic clearance in mouse liver microsomes
Type: in vitro ADME
microsomal CLint listing for selected compounds.

| COMPOUND | RESULT UNITS | microsomal CLint |
| --- | --- | --- |
| O=C1Nc2ccccc2C(=O)CCc2ccc(O)cc21 | µL/min/mg | 36 |
| O=C1CCc2ccccc2CC(=O)c2ccccc2N1 | µL/min/mg | 18 |
| O=C1Nc2ccccc2C(=NO)CCc2ccccc21 | µL/min/mg | 76 |
| O=C1Nc2ccc(C(F)(F)F)cc2C(=O)CCc2ccccc21 | µL/min/mg | 79 |
| O=C1Nc2cc(F)cc(F)c2C(=O)CCc2ccccc21 | µL/min/mg | 58 |
| O=C1Oc2ccccc2C(=O)CCc2ccccc21 | µL/min/mg | 16 |
| O=C1Nc2ccccc2C(O)CCc2ccccc21 (stereo not shown) | µL/min/mg | 27 |
| CO/N=C1\CCc2ccccc2C(=O)Nc2ccccc21 | µL/min/mg | 54 |
| NC(=O)c1ccc2c(c1)C(=O)CCc1ccccc1C(=O)N2 | µL/min/mg | 10 |
| CN1C(=O)c2ccccc2CCC(=O)c2ccccc21 | µL/min/mg | 220 |
